Origin of the recorded values: paper PMC6305410

- Test Target: NleB1 (Escherichia coli, UniProt Q8XBX8)
- Construct: GST-EHEC-NleB1 in pET42a (GST/His tagged), expressed in E. coli BL21 (DE3), nickel purified; some tag cleavage noted
- Test Context: 80 µM; inhibitor
Please go through the items and note down their % NleB1 inhibition (µM compound) / 80.
Only the number, expressed in %, is required.

Lookup: Need % NleB1 inhibition (µM compound) / 80, item CC(=O)c1ccc(OCc2cn(CC(=O)c3ccc(O)cc3)nn2)c(F)c1 [KUC104088N]
Found: 76.5

Lookup: Need % NleB1 inhibition (µM compound) / 80, item CCCCCCCCCCCCN1[C@@H](CC(=O)O)c2cc(C(F)(F)F)ccc2S1(=O)=O [KUC101994N]
Found: 80.4

Lookup: Need % NleB1 inhibition (µM compound) / 80, item COCOCCn1cc(CN2CCS(=O)(=O)N(Cc3ccc(-c4ccc(OC)nc4)cc3)C(C(C)C)C2=O)nn1 (centres unmarked) [KUC105133N]
Found: 62.2

Lookup: Need % NleB1 inhibition (µM compound) / 80, item COc1ccc(OCc2cn(CC(=O)c3ccc(O)cc3)nn2)cc1 [KUC104109N]
Found: 67.3

Lookup: Need % NleB1 inhibition (µM compound) / 80, item C[C@H](c1ccccc1)N1C[C@@H](COCc2ccccc2)Oc2cc(N3CC[C@@H](O)C3)ccc2S1(=O)=O [KUC108511N]
Found: 49.8

Lookup: Need % NleB1 inhibition (µM compound) / 80, item COC(=O)[C@H](C(C)C)N1Cc2nnn(Cc3ccccc3)c2-c2ccccc2S1(=O)=O [KUC110604N]
Found: 21.1

Lookup: Need % NleB1 inhibition (µM compound) / 80, item COc1cccc(N2[C@@H](CC(=O)O)c3ccc(/C=C/C(=O)O)cc3S2(=O)=O)c1 [KUC102262N]
Found: 41.7

Lookup: Need % NleB1 inhibition (µM compound) / 80, item Cc1cccc(C)c1OCc1cn(CC(=O)c2ccc(O)cc2)nn1 [KUC104090N]
Found: 69.2

---

- Test Target: NleB1 (Escherichia coli, UniProt Q8XBX8)
- Construct: GST-EHEC-NleB1 in pET42a (GST/His tagged), expressed in E. coli BL21 (DE3), nickel purified; some tag cleavage noted
- Test Context: 20 µM; inhibitor
Outcome Measure: % NleB1 inhibition (µM compound) / 20 (%)
Only the number, expressed in %, is required.

Lookup: Need % NleB1 inhibition (µM compound) / 20, item O=C(NC1CCC(=O)N(CCSc2ccccc2)CC1)OCc1ccccc1 (stereo not drawn) [KUC102830N]
Found: 20.9

Lookup: Need % NleB1 inhibition (µM compound) / 20, item O=C(Cn1cc(COc2c(F)c(F)cc(F)c2F)nn1)c1ccc(O)cc1 [KUC104092N]
Found: 42.1

Lookup: Need % NleB1 inhibition (µM compound) / 20, item CCC[C@H]1[C@@H](OC(=O)NCc2ccc(OC)cc2)CC[C@@]23CCCN2C(=O)CCC[C@@H]13 [KUC112136N]
Found: 22.0

Lookup: Need % NleB1 inhibition (µM compound) / 20, item O=C1CCN(S(=O)(=O)c2ccccc2)CCN1CCOCc1ccc(Cl)cc1 [KUC100988N]
Found: 14.5

Lookup: Need % NleB1 inhibition (µM compound) / 20, item C[C@H](c1ccccc1)N1C[C@@H](COCc2ccccc2)Oc2cc(N3CC[C@@H](O)C3)ccc2S1(=O)=O [KUC108511N]
Found: 33.0

Lookup: Need % NleB1 inhibition (µM compound) / 20, item COc1ccc(C(CCN2CCOCC2)c2c(OC)cc(OC)c3c2OC(=O)CC3c2ccc(OC)cc2)cc1 (stereo not drawn) [KUC101459N]
Found: 26.2

Lookup: Need % NleB1 inhibition (µM compound) / 20, item COC(=O)[C@H](C(C)C)N1Cc2nnn(Cc3ccccc3)c2-c2ccccc2S1(=O)=O [KUC110604N]
Found: 15.1

Lookup: Need % NleB1 inhibition (µM compound) / 20, item Cc1cccc(C(=O)N2CCC(=O)N([C@H](COCc3ccc(Cl)cc3)Cc3ccccc3)CC2)c1 [KUC100143N]
Found: 38.0

Lookup: Need % NleB1 inhibition (µM compound) / 20, item O=C1CCC[C@@H]2Cc3nc4ccc(O)cc4cc3[C@@H]3CCN1[C@H]23 [KUC103038N]
Found: 35.2
